Assay: chemical genetic growth profiling, strain panel (AID 1159580);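 further: tested at 20 µM; growth read once vehicle control cultures reached saturation at 30 °C; 1 = growth at the plate median or of vehicle wells; lower values mean less growth of the strain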
Conditions: S. cerevisiae deletion strains, growth OD, locus YNL224C, strain SQS1, stronger effect = lower value
Among all 5,500 compounds or so, about 2,000 (36%) were called active. Not shown: some 18% with an inconclusive outcome. This is one part of the list.
Field: normalized growth. Provide a value for each of the compounds that follow.
Give the figure only, with no unit attached.

Ask | Which normalized growth value is on record for "NC(=O)NO" ?
Reply | 0.99

Ask | Quick one: normalized growth of CCCCCN(CCCCC)C(=O)C(CCC(=O)O)NC(=O)c1ccc(Cl)c(Cl)c1 (stereo unspecified) ?
Reply | 0.985

Ask | Using the record for CC(C)NCC(O)c1ccc(NS(C)(=O)=O)cc1 (stereo unspecified) , report its normalized growth.
Reply | 1

Ask | Recorded normalized growth of C[C@]12Cc3cn4c(nc3C=C1CCC1C2CC[C@@]2(C)[C@H]1CC[C@@]2(O)C#N)nc1ccccc14 (stereo partly specified) , please.
Reply | 0.799

Ask | Query (compound): Nc1ncnc2c1ncn2[C@@H]1O[C@H](C(=O)NC2CC2)[C@H](O)C1O (stereo partly specified) ; field requested: normalized growth
Reply | 1.01

Ask | # normalized growth lookup, item "CC(=O)NBr"
Reply | 1.01

Ask | Which normalized growth is listed for "CN(C)C(=O)N=NC(=O)N(C)C" ?
Reply | 1.01

Ask | Query (compound): C=C(C)C1Cc2c(ccc3c2OC2COc4cc(OC)c(OC)cc4C2C3=O)O1 (stereo unspecified) ; field requested: normalized growth
Reply | 0.964

Ask | So what does the record say about normalized growth for COc1ccccc1N1CCN(CC(O)COc2cccc3ccccc23)CC1 (stereo unspecified) ?
Reply | 0.99

Ask | Which value of normalized growth has been reported for "C[C@]12CCC(=O)C=C1CC[C@@H]1[C@@H]2[C@@H](O)C[C@@]2(C)[C@H]1CC[C@]2(O)C(=O)COC(=O)CCC(=O)O" in the records?
Reply | 0.994

Ask | Request the reported normalized growth associated with CN1C(=O)CCS(=O)(=O)C1c1ccc(Cl)cc1 (stereo unspecified)
Reply | 1

###

Field: normalized growth. Provide a value for each of the compounds that follow.
Assay: chemical genetic growth profiling, strain panel (AID 1159580)
Settings: S. cerevisiae deletion strains, growth OD, locus YGR135W, strain pre9, stronger effect = lower value
The campaign covered roughly 5,500 compounds. About 2,000 (36%) were called active. Not shown: some 18% with an inconclusive outcome. The list shows a part of the results. Where a SMILES comes first, the peptide text is derived from it. [ ]: non-standard residue; d: D form. Orn = NCCC[CH](N)C(=O)O
// return a plain number; no unit text

Ask | Please give the measured normalized growth for this compound: CC(=O)OCC(=O)[C@@]12OC3(CCCC3)O[C@@H]1CC1C3CCC4=CC(=O)C=C[C@]4(C)[C@@]3(F)[C@@H](O)C[C@@]12C (some centres undefined)
Reply | 0.989

Ask | Given the compound CC(C)CC1NC(=O)C(CCCN)NC(=O)C(C(C)C)NC(=O)C2CCCN2C(=O)C(Cc2ccccc2)NC(=O)C(CC(C)C)NC(=O)C(CCCN)NC(=O)C(C(C)C)NC(=O)C2CCCN2C(=O)C(Cc2ccccc2)NC1=O (centres undefined) (cyclo(FPV[Orn]LFPV[Orn]L); configuration not given here) , what is its reported normalized growth?
Reply | 0.981

Ask | I have this compound here, "CN1CCN(CC(=O)N2c3ccccc3C(=O)Nc3cccnc32)CC1" , and I need its recorded normalized growth.
Reply | 1.01

Ask | # get_value(readout='normalized growth', item= COP(=O)(OC)OC(Br)C(Cl)(Cl)Br (centres undefined) )
Reply | 1.01

###

For each record, write down the corresponding normalized growth.
Test: chemical genetic growth profiling, strain panel (AID 1159580);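 further: tested at 20 µM; growth read once vehicle control cultures reached saturation at 30 °C; 1 = growth at the plate median or of vehicle wells; lower values mean less growth of the strain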
Conditions: S. cerevisiae deletion strains, growth OD, locus YEL037C, strain rad23, stronger effect = lower value
About 2,000 (36%) of roughly 5,500 compounds were called active. Not shown: some 18% with an inconclusive outcome. This is one part of the list.
Could you respond with only the numeric value?

Ask | What value of normalized growth has been reported for the following compound? CN1C(=O)CCS(=O)(=O)C1c1ccc(Cl)cc1 (configuration not stated)
Reply | 0.982

Ask | Which normalized growth is listed for "OCCN1CCN(CCCN2c3ccccc3Sc3ccc(C(F)(F)F)cc32)CC1" ?
Reply | 0.994

Ask | Give its normalized growth value. Item: C=C(C)[C@@H]1CC[C@]2(CO)CC[C@]3(C)[C@H](CCC4[C@@]5(C)CC[C@H](O)C(C)(C)C5CC[C@]43C)C12 (some centres not stated)
Reply | 0.977

Ask | Entry "c1ccc([C@H]2CN3CCSC3=N2)cc1" : reported normalized growth = ?
Reply | 1

Ask | Any idea what normalized growth was measured for "CCOc1cccc(C(=O)c2ccc(O)c(O)c2O)c1" ?
Reply | 0.925

Ask | Looking for the measured normalized growth of "COc1ccc2c(c1)[C@]13CCCC[C@H]1[C@H](C2)N(C)CC3" , can you help?
Reply | 0.975

Ask | Could you share which normalized growth value was measured for "COc1ccc(C2C(=O)c3ccccc3C2=O)cc1" ?
Reply | 0.994

###

Experiment: chemical genetic growth profiling, strain panel (AID 1159580);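 further: tested at 20 µM; growth read once vehicle control cultures reached saturation at 30 °C; 1 = growth at the plate median or of vehicle wells; lower values mean less growth of the strain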
Details: S. cerevisiae deletion strains, growth OD, locus YDL101C, strain DUN1, stronger effect = lower value
About 2,000 (36%) of roughly 5,500 compounds were called active. Another 18% or so got no clear call; they are omitted. The list shows a part of the results.
VALUE_TYPE: normalized growth

Ask | Bench note: what normalized growth did "COc1ccc(C2C(=O)c3ccccc3C2=O)cc1" show?
Reply | 1 (inactive)

Ask | Given "CC(=O)Oc1cccc2c1C(=O)c1c(OC(C)=O)cc(C(=O)O)cc1C2=O" , state its recorded normalized growth.
Reply | 1.01 (inactive)

Ask | Consider the molecule "COc1ccc2c(=O)ccoc2c1" and give its measured normalized growth.
Reply | 1.02 (inactive)

Ask | Value lookup for normalized growth; key = "COc1c2occc2c(OC)c2c(=O)cc(C)oc12"
Reply | 1.02 (inactive)

Ask | What value of normalized growth has been recorded for this entry: "O/N=C\c1sccc1Oc1ccccc1"
Reply | 0.926 (inactive)

Ask | # query: normalized growth of entry NC1CC1c1ccccc1 (configuration not stated)
Reply | 1.03 (inactive)

Ask | Value lookup for normalized growth; key = "Cc1ccc(N=Cc2cccs2)cc1Cl"
Reply | 1 (inactive)

Ask | Which normalized growth is reported for this molecule? "Clc1ccc(N/N=C\c2sccc2Oc2ccccc2)cc1"
Reply | 0.951 (inactive)

Ask | Which normalized growth value belongs to "COc1c2ccoc2cc2oc(C)cc(=O)c12" ?
Reply | 0.96 (inactive)

Ask | Quick one: normalized growth for "O=C(CCc1ccc(O)cc1)c1c(O)cc(O)cc1O[C@@H]1O[C@H](CO)[C@@H](O)[C@H](O)[C@H]1O" ?
Reply | 1.02 (inactive)

Ask | Item "COc1cc(-c2coc3cc(O[C@@H]4O[C@H](CO)[C@@H](O)[C@H](O)[C@H]4O)c(OC)c(O)c3c2=O)cc(O)c1OC" has what recorded normalized growth?
Reply | 0.987 (inactive)

Ask | Name the recorded normalized growth for NC1C[C@H]1c1ccccc1 (some centres not stated) .
Reply | 1 (inactive)

###

Assay: chemical genetic growth profiling, strain panel (AID 1159580);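 further: tested at 20 µM; growth read once vehicle control cultures reached saturation at 30 °C; 1 = growth at the plate median or of vehicle wells; lower values mean less growth of the strain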
Conditions: S. cerevisiae deletion strains, growth OD, locus YNL209W, strain ssb2, stronger effect = lower value
About 2,000 (36%) of roughly 5,500 compounds were called active. Roughly 18% stayed inconclusive and do not appear here. This is one part of the list. Where a SMILES comes first, the peptide text is derived from it. [ ]: non-standard residue; d: D form. Orn = NCCC[CH](N)C(=O)O
Exercise: state measured normalized growth for each of the molecules provided.
Enter the number alone.

Ask | GET /values?readout=normalized growth&item= CC(=O)OC1CCC2(C)C3CC(=O)C4(C)C(CC5OC6(CCC(C)CO6)[C@@H](C)C54)C3CC[C@H]2C1 (stereo partly drawn)
Reply | 1

Ask | Look at this molecule and give its reported normalized growth. "CCN(CC)CCNC(=O)c1cc(Cl)c(N)cc1OC"
Reply | 0.974

Ask | Given "NC(N)=NC(N)=Nc1ccccc1" , state its recorded normalized growth.
Reply | 1

Ask | Quick one: normalized growth of C[C@]12CCC3C(CC[C@H]4C[C@H](OS(=O)(=O)O)CC[C@]34C)C1CCC2=O (stereo partly drawn) ?
Reply | 1.04

Ask | Recorded normalized growth of CC(C)CC1NC(=O)C(CCCN)NC(=O)C(C(C)C)NC(=O)C2CCCN2C(=O)C(Cc2ccccc2)NC(=O)C(CC(C)C)NC(=O)C(CCCN)NC(=O)C(C(C)C)NC(=O)C2CCCN2C(=O)C(Cc2ccccc2)NC1=O (stereo not drawn) (cyclo(FPV[Orn]LFPV[Orn]L); configuration not given here) , please.
Reply | 1.01

Ask | Reported normalized growth, molecule "CNS(=O)(=O)Cc1ccc2[nH]cc(CCN(C)C)c2c1" : ____
Reply | 1.02

Ask | Consider the molecule "CN(C)CCc1c[nH]c2ccc(C[C@H]3COC(=O)N3)cc12" and give its measured normalized growth.
Reply | 1.01

Ask | Please look up its normalized growth: CC(=O)O[C@H]1CC[C@]2(C)C3CC[C@@]4(C)C(CC5O[C@@]6(CCC(C)CO6)[C@@H](C)C54)C3CC[C@@H]2C1 (stereo partly drawn)
Reply | 1
